Experiment: Cytotoxicity against human U2OS cells assessed as reduction in cell viability
Assay type: cell-based
CC50 vs 60 µM: less than gives Satisfied; not less than gives Not satisfied.

>  <molecule>
O=C(N/N=C/c1ccc([N+](=O)[O-])o1)C1CCCCC1

>  <categoryLabel>
Satisfied

$$$$
>  <molecule>
O=C(N/N=C/c1ccc([N+](=O)[O-])o1)c1ccc(-c2ccccc2)cc1

>  <categoryLabel>
Not satisfied

$$$$
>  <molecule>
O=C(Cn1ccnc1[N+](=O)[O-])NCc1ccccc1

>  <categoryLabel>
Not satisfied

$$$$
>  <molecule>
CCCCCC1CCC(C(=O)N/N=C/c2ccc([N+](=O)[O-])o2)CC1 (stereo not drawn)

>  <categoryLabel>
Not satisfied

$$$$
>  <molecule>
O=C(N/N=C/c1ccc([N+](=O)[O-])o1)c1ccc2ccccc2c1

>  <categoryLabel>
Not satisfied

$$$$
>  <molecule>
N#Cc1ccc(C(=O)N/N=C/c2ccc([N+](=O)[O-])o2)cc1

>  <categoryLabel>
Satisfied

$$$$
>  <molecule>
CCCCCc1ccc(C(=O)N/N=C/c2ccc([N+](=O)[O-])o2)cc1

>  <categoryLabel>
Not satisfied

$$$$
>  <molecule>
CC1CS(=O)(=O)CCN1/N=C/c1ccc([N+](=O)[O-])o1 (stereo not drawn)

>  <categoryLabel>
Not satisfied

$$$$

====

System: Trypanosoma cruzi
Test: Antitrypanosomal activity against Trypanosoma cruzi Colombiana Tc1 epimastigotes measured after 72 hrs
Assay type: functional, organism-based
Conditions: Trypanosoma cruzi, Colombiana, 72 h
pIC50: −log10 of the molar value.
Is pIC50 at least 5? Then rule met. If not, rule not met.

>  <molecule>
Cc1nnsc1C(=O)N/N=C/c1ccc([N+](=O)[O-])o1

>  <systemUnderTest>
Trypanosoma cruzi

>  <categoryLabel>
rule not met

$$$$
>  <molecule>
CCCCCC1CCC(C(=O)N/N=C/c2ccc([N+](=O)[O-])o2)CC1 (stereo not drawn)

>  <systemUnderTest>
Trypanosoma cruzi

>  <categoryLabel>
rule met

$$$$
>  <molecule>
CCCCOc1ccc(C(=O)N/N=C/c2ccc([N+](=O)[O-])o2)cc1

>  <systemUnderTest>
Trypanosoma cruzi

>  <categoryLabel>
rule met

$$$$

====

Test system: Trypanosoma cruzi
Assay: Antitrypanosomal activity against Trypanosoma cruzi Colombiana Tc1 epimastigotes measured after 72 hrs
Type: functional, organism-based
Conditions: Trypanosoma cruzi, Colombiana, 72 h
readoutLabel: IC50 (µM)

>  <compound>
COc1ccc(C(=O)N/N=C/c2ccc([N+](=O)[O-])o2)cc1

>  <units>
µM

>  <value>
8.08

$$$$
>  <compound>
O=C(Cn1ccnc1[N+](=O)[O-])NCc1ccccc1

>  <units>
µM

>  <value>
47.9

$$$$
>  <compound>
O=C(N/N=C/c1ccc([N+](=O)[O-])o1)c1ccc(O)cc1 [NIFUROXAZIDE]

>  <units>
µM

>  <value>
188

$$$$
>  <compound>
CC(C)(C)c1ccc(C(=O)N/N=C/c2ccc([N+](=O)[O-])o2)cc1

>  <units>
µM

>  <value>
6.1

$$$$
>  <compound>
O=C(N/N=C/c1ccc([N+](=O)[O-])o1)C1CCCCC1

>  <units>
µM

>  <value>
10.2

$$$$

====

The compounds listed here are annotated with their IC50.
Tested on: Trypanosoma cruzi
Assay: Antitrypanosomal activity against Trypanosoma cruzi Colombiana Tc1 epimastigotes measured after 72 hrs
Format: functional, organism-based
Details: Trypanosoma cruzi, Colombiana, 72 h

>  <compound>
O=C(N/N=C/c1ccc([N+](=O)[O-])o1)c1cccc(C(F)(F)F)c1

>  <IC50 [µM]>
9.98

$$$$
>  <compound>
O=C(N/N=C/c1ccc([N+](=O)[O-])o1)c1ccc2ccccc2c1

>  <IC50 [µM]>
7.58

$$$$
>  <compound>
Cc1cccc(C(=O)N/N=C/c2ccc([N+](=O)[O-])o2)c1

>  <IC50 [µM]>
8.53

$$$$
>  <compound>
CCCCCCCCC(=O)N/N=C/c1ccc([N+](=O)[O-])o1

>  <IC50 [µM]>
8.07

$$$$
>  <compound>
O=C(N/N=C/c1ccc([N+](=O)[O-])o1)c1ccc(Cl)cc1

>  <IC50 [µM]>
8.64

$$$$
>  <compound>
CC1CS(=O)(=O)CCN1/N=C/c1ccc([N+](=O)[O-])o1 (stereo unspecified) [NIFURTIMOX]

>  <IC50 [µM]>
9.93

$$$$
